reported_property: melting point

According to the records, this molecule CC1C(=O)Oc2c(Oc3ccccc3F)cccc21 (stereo not given) displays melting point of 70 to 71.5 °C

molecule `Cc1ccc(-c2ccc3c(c2)C=C(C(=O)Nc2ccc(CN4CCCCC4)cc2)C3)cc1` , melting point observed: 219 to 220 °C

Please fill in: melting point reported for Cc1ccccc1COC1(C)COC(CCl)OC1 (stereo not given) = 57 to 58 °C

// field: melting point; key: `Nc1nc(-c2cc(Cl)ccc2Cl)nc(N2CC=CC2)n1` ; value = 205 to 206 °C

molecule CC=Cc1cccc2c1OC(c1ccccc1)CC2=O (stereo not given) , melting point observed: < 50 °C

Value of melting point reported for the molecule `CC1(C)CC(c2ccccc2)=NC1=Cc1ccccc1` is 101 to 103 °C

So, `O=[N+]([O-])c1cnc2ccc(Oc3ccc(CNc4ncncc4Cl)cc3)nn12` ? Its melting point was 185 °C

Consider `Cc1nn(C)c(OCC(=O)C(C)(C)CCl)c1C(=O)c1ccc(Cl)cc1Cl` . Its measured melting point is 58 to 60 °C

Value of measured melting point for the entry `CCOC(=O)c1c(N2CCNCC2)c2cc(C)ccc2n(-c2ccccc2)c1=O` : 181 °C

For `COc1cccc(C(=O)C=Cc2ccc(OC)cc2OC)c1` the molecule record lists melting point as 75.6 to 78.9 °C
